test system: MDA-MB-468; assay: Cytotoxicity against EGFR over-expressing human MDA-MB-468 cells assessed as cell viability at 10 uM after 48 hrs by MTT assay relative to control; type: functional; details: MDA-MB-468, 48 h, read-out: Activity
Would you mind telling me the reported viability at 10 µM of each entry?
Express the result in % but write the number alone.

For c1cc(N2CCSCC2)nc(Nc2ccc(OCCCN3CCOCC3)cc2)n1 , write its viability at 10 µM.
73.4

For c1cc(N2CCOCC2)nc(Nc2ccc(OCCCN3CCCCC3)cc2)n1 , write its viability at 10 µM.
86.8

For c1cc(N2CCCC2)nc(Nc2ccc(OCCCN3CCSCC3)cc2)n1 , write its viability at 10 µM.
78.3

For CCN(CC)CCCOc1ccc(Nc2nccc(N3CCN(C)CC3)n2)cc1 , write its viability at 10 µM.
64.6

For CCN(CC)CCCOc1ccc(Nc2nccc(N3CCSCC3)n2)cc1 , write its viability at 10 µM.
88

For c1cc(N2CCSCC2)nc(Nc2ccc(OCCCN3CCSCC3)cc2)n1 , write its viability at 10 µM.
65

For CCN(CC)c1ccnc(Nc2ccc(OCCCN3CCCCC3)cc2)n1 , write its viability at 10 µM.
53.1

For ClC1CCN(c2ccnc(Nc3ccc(OCCCN4CCCCC4)cc3)n2)CC1 , write its viability at 10 µM.
52.1

For CCN(CC)CCCOc1ccc(Nc2nccc(N3CCCC3)n2)cc1 , write its viability at 10 µM.
69.7

For CCN(CC)CCCOc1ccc(Nc2nccc(N3CCCCC3)n2)cc1 , write its viability at 10 µM.
62

For CCN(CC)CCCOc1ccc(Nc2nccc(N3CCOCC3)n2)cc1 , write its viability at 10 µM.
79.4
